meta.source: patent US20190375708A1

Assay procedure: In vitro cytotoxicity assay (MTT cell viability) in HepG2 cells
Format: cell-based, human
Test parameters: human
Parameter: CC50 at 7 days. Scope: all listed entries.

Example compounds with recorded CC50 at 7 days:
{"Compound": "Cc1cc(NC(=O)c2c(C)c(C(=O)C(=O)NC(C)(C)C)n3c2CCCC3)ccc1F [Example 434]", "Attribute measured": "CC50 at 7 days", "Experimental value": "> 30 µM"}
{"Compound": "COc1c(C(=O)Nc2ccc(F)c(F)c2)c(C)n(C)c1C(=O)C(=O)NC1(C(F)(F)F)CC1 [Example 377]", "Attribute measured": "CC50 at 7 days", "Experimental value": "> 30 µM"}
{"Compound": "O=C(NC1(CO)CC1)C(=O)c1c(Cl)c(C(=O)Nc2ccc(F)c(Cl)c2)c2n1CCC2 [Example 566]", "Attribute measured": "CC50 at 7 days", "Experimental value": "5 to 30 µM"}
{"Compound": "Cc1nnc(C2(NC(=O)C(=O)c3c(C)c(C(=O)Nc4ccc(F)c(C)c4)c(C)n3C)CC2)o1 [Example 182]", "Attribute measured": "CC50 at 7 days", "Experimental value": "> 30 µM"}
{"Compound": "Cc1cc(NC(=O)c2c(C)c(C(=O)C(=O)NC(C)(C)C(N)=O)n(CCO)c2C)ccc1F [Example 72]", "Attribute measured": "CC50 at 7 days", "Experimental value": "> 30 µM"}
{"Compound": "CC(=O)N1CCC(C)(NC(=O)C(=O)c2c(C)c(C(=O)Nc3ccc(F)c(C)c3)c(C)n2C)CC1 [Example 612]", "Attribute measured": "CC50 at 7 days", "Experimental value": "> 30 µM"}

Please supply the value of reported CC50 at 7 days for the item CCn1c(C)c(C(=O)Nc2ccc(F)c(C)c2)c(C)c1C(=O)C(=O)NC(C)(C)CO [Example 98]
> 30 µM

Please supply the value of reported CC50 at 7 days for the item Cc1c(C(=O)Nc2ccc(F)c(Cl)c2)c2n(c1C(=O)C(=O)NCc1cnc(N)s1)CCCC2 [Example 448]
5 to 30 µM

Please supply the value of reported CC50 at 7 days for the item Cc1cc(NC(=O)c2c(C)c(C(=O)C(=O)N3C4CCCC3CC(=O)C4)n(C)c2C)cnc1F [Example 193]
> 30 µM

Please supply the value of reported CC50 at 7 days for the item Cc1cc(NC(=O)c2c(Cl)c(C(=O)C(=O)NCC(C)(C)O)n3c2CCC3)ccc1F [Example 550]
> 30 µM

Please supply the value of reported CC50 at 7 days for the item Cc1cc(NC(=O)c2c(C)c(C(=O)C(=O)NC3(c4noc(-c5cccs5)n4)CCCCC3)n(C)c2C)ccc1F [Example 634]
> 30 µM

Please supply the value of reported CC50 at 7 days for the item CCN(CC)CCNC(=O)C(=O)c1c(C)c(C(=O)Nc2ccc(F)c(C)c2)c(C)n1C [Example 329]
> 30 µM

Please supply the value of reported CC50 at 7 days for the item CC(C)(CO)NC(=O)C(=O)c1cc(C(=O)Nc2ccc(F)c(F)c2)c2n1CCCC2 [Example 426]
> 30 µM

Please supply the value of reported CC50 at 7 days for the item Cc1c(C(=O)Nc2ncc(C(F)(F)F)s2)c2n(c1C(=O)C(=O)NC(C)(C)CO)CCCC2 [Example 757]
> 30 µM

Please supply the value of reported CC50 at 7 days for the item Cc1c(C(=O)Nc2cc(F)c(F)c(F)c2)c(Cl)c(C(=O)C(=O)NC(C)(C)C)n1C [Example 369]
> 30 µM

Please supply the value of reported CC50 at 7 days for the item Cc1cc(NC(=O)c2c(C)c(C(=O)C(=O)N[C@H]3c4ccccc4C[C@H]3O)n(C)c2C)ccc1F [Example 260]
5 to 30 µM

Please supply the value of reported CC50 at 7 days for the item Cc1cc(NC(=O)c2cc(C(=O)C(=O)NCC(C)(C)O)n3c2CCCC3)ccc1F [Example 419]
> 30 µM

Please supply the value of reported CC50 at 7 days for the item Cc1c(C(=O)Nc2cccc(C(F)F)c2)c(C)n(C)c1C(=O)C(=O)N[C@@H]1CC[C@@H](O)C1 [Example 721]
> 30 µM

Please supply the value of reported CC50 at 7 days for the item Cc1cc(NC(=O)c2c(C)c(C(=O)C(=O)N[C@H]3CC[C@@H](O)CC3)n(CCF)c2C)ccc1F [Example 210]
> 30 µM

Please supply the value of reported CC50 at 7 days for the item Cc1noc([C@@H](C)NC(=O)C(=O)c2c(C)c(C(=O)Nc3ccc(F)c(Cl)c3)c3n2CCCC3)n1 [Example 447]
5 to 30 µM

Please supply the value of reported CC50 at 7 days for the item CC[C@H](C)NC(=O)C1(NC(=O)C(=O)c2c(C)c(C(=O)Nc3ccc(F)c(C)c3)c(C)n2C)CCOCC1 [Example 682]
> 30 µM

Please supply the value of reported CC50 at 7 days for the item Cc1c(C(=O)Nc2ccc(F)nc2)c(C)n(C)c1C(=O)C(=O)N[C@]1(C)CC[C@H](O)CC1 [Example 240]
> 30 µM

Please supply the value of reported CC50 at 7 days for the item Cc1cc(NC(=O)c2c(C)c(C(=O)C(=O)N[C@@H]3CCC[C@H]3O)n(C)c2C)ccc1F [Example 95]
> 30 µM
